Tgt: purified bovine transducin (alpha subunit is the ADP-ribose acceptor), P04695
Measured quantity: ADP-ribosyltransferase activity (cpm)

| Protein | Unit spec | Observed value |
| --- | --- | --- |
| S1 mutant 5-1 (Tyr8->Phe in S1/6A) (protein) MVPPATVFRYDSRPPEDVFQNGFTAWGNNDNVLDHLTGRSCQVGSSNSAFVSTSSSRRYTEVYLEHRMQEAVEAERAGRGTGHFIGYIYEVRADNNFYGAASSYFEYVDTYGDNAGRILAGALATYQSEYLAHRRIPPENIRRVTRVYHNGITGETTTTEYSNARYVSQHTRANPNPYTSRRSVASIVGTLVRMAPVIGACMARQAESSEAMAAWSERAGEAMVLVYYESIAYS | cpm | 26400 |
| S1 mutant 4-1 (Arg9->Lys in S1/6A) (protein) MVPPATVYKYDSRPPEDVFQNGFTAWGNNDNVLDHLTGRSCQVGSSNSAFVSTSSSRRYTEVYLEHRMQEAVEAERAGRGTGHFIGYIYEVRADNNFYGAASSYFEYVDTYGDNAGRILAGALATYQSEYLAHRRIPPENIRRVTRVYHNGITGETTTTEYSNARYVSQHTRANPNPYTSRRSVASIVGTLVRMAPVIGACMARQAESSEAMAAWSERAGEAMVLVYYESIAYS | cpm | 754 |
| S1 mutant 3-1 (Asp11->Glu in S1/6A) (protein) MVPPATVYRYESRPPEDVFQNGFTAWGNNDNVLDHLTGRSCQVGSSNSAFVSTSSSRRYTEVYLEHRMQEAVEAERAGRGTGHFIGYIYEVRADNNFYGAASSYFEYVDTYGDNAGRILAGALATYQSEYLAHRRIPPENIRRVTRVYHNGITGETTTTEYSNARYVSQHTRANPNPYTSRRSVASIVGTLVRMAPVIGACMARQAESSEAMAAWSERAGEAMVLVYYESIAYS | cpm | 13500 |

Values were extracted from patent US7232671.
